Please respond with reported inhibition at 0.05 µM for every item in the list.
Molecular target: HGFR (Homo sapiens)
Construct: purchased Upstate 14-526
Sequence (P08581 974-1390 limits assumed): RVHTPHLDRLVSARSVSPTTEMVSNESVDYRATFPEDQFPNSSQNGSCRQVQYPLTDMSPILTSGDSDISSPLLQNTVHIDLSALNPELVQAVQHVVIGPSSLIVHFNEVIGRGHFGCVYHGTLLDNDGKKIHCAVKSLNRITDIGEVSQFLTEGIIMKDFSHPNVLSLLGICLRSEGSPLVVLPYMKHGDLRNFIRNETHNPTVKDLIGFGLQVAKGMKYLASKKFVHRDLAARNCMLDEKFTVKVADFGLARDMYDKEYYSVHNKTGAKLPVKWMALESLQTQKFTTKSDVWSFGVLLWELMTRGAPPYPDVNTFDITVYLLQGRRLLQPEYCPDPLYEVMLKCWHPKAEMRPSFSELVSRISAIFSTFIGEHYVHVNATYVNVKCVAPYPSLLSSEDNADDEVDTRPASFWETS
Assay: HGFR continuous-coupled spectrophotometric assay
Assay type: biochemical
Settings: at 50 nM; Table 5, library procedure 40; read-out: % inhibition (percent c-MET inhibition)
Answers are plain numbers, in %.

# return inhibition at 0.05 µM for CC(C)OCCCNC(=O)c1ccc(-c2cnc(N)c(OC(C)c3c(Cl)ccc(F)c3Cl)c2)cc1 (stereo not drawn) , test system: HGFR (Homo sapiens)
62

For each listed entry, give its inhibition at 0.05 µM.
1. CC(C)NC(=O)c1ccc(-c2cnc(N)c(OC(C)c3c(Cl)ccc(F)c3Cl)c2)cc1 (stereo not drawn)
2. CC(Oc1cc(-c2ccc(C(=O)NCCCN3CCCC3)cc2)cnc1N)c1c(Cl)ccc(F)c1Cl (stereo not drawn)
3. CC(C)CNC(=O)c1ccc(-c2cnc(N)c(OC(C)c3c(Cl)ccc(F)c3Cl)c2)cc1 (stereo not drawn)
4. CC(CO)NC(=O)c1ccc(-c2cnc(N)c(OC(C)c3c(Cl)ccc(F)c3Cl)c2)cc1 (stereo not drawn)

1: 71; 2: 90; 3: 60; 4: 66

Give inhibition at 0.05 µM for each listed item.
1. CC(Oc1cc(-c2ccc(C(=O)NC[C@@H]3CCCO3)cc2)cnc1N)c1c(Cl)ccc(F)c1Cl (stereo partly drawn)
2. CC(C)[C@@H](CO)NC(=O)c1ccc(-c2cnc(N)c(O[C@@H](C)c3c(Cl)ccc(F)c3Cl)c2)cc1
3. CC(Oc1cc(-c2ccc(C(=O)N3CCCN(C)CC3)cc2)cnc1N)c1c(Cl)ccc(F)c1Cl (stereo not drawn)

[61, 74, 77]

====

So I've got a bunch of compounds here, and I need their inhibition at 1 pM values.
Target: HGFR (Homo sapiens)
Construct: purchased Upstate 14-526
Experiment: HGFR continuous-coupled spectrophotometric assay
Assay type: biochemical
Settings: at 1 pM; Table 7, library procedure 42; read-out: % Inhibition (percent c-MET inhibition)
Numbers only, in %.

Solved entries (count: 3):
# lookup: HGFR (Homo sapiens) inhibition at 1 pM, key = "Nc1ncc(-c2ccc(C(=O)N3CCC(N4CCCC4)CC3)cc2)cc1OCc1ccc(C(=O)NCCCN2CCCC2=O)cc1"
11

Provide measured inhibition at 1 pM on HGFR (Homo sapiens) for "Nc1ncc(-c2ccc(C(=O)N3CCC(N4CCCC4)CC3)cc2)cc1OCc1cc(F)ccc1F" please.
24

Send back HGFR (Homo sapiens) inhibition at 1 pM of "Nc1ncc(-c2ccc(C(=O)N3CCC(N4CCCC4)CC3)cc2)cc1OCc1cccc(Br)c1" only.
24

Respectfully, I request inhibition at 1 pM for each entry included below.
1. Cn1nc(-c2ccccc2)c(COc2cc(-c3ccc(C(=O)N4CCC(N5CCCC5)CC4)cc3)cnc2N)c1Cl
2. Nc1ncc(-c2ccc(C(=O)N3CCC(N4CCCC4)CC3)cc2)cc1OCc1nc2cccnc2[nH]1

1: 63; 2: 17

====

I'd appreciate it if you could supply IC50 values for the items below.
Target: Met kinase domain (GST fusion protein) (Homo sapiens, UniProt P08581)
Construct: Purified GST fusion protein containing the Met kinase domain
Sequence (P08581 1078-1345 limits assumed): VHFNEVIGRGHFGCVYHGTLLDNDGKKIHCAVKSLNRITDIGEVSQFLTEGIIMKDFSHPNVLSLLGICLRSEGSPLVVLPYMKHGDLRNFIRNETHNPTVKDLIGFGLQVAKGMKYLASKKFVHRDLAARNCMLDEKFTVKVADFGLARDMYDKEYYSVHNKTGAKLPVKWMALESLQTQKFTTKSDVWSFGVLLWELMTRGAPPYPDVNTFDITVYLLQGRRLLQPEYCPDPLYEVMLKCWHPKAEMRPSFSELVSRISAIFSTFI
Assay: Met transphosphorylation assay (ELISA, poly(glu-tyr) substrate);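 further: Cell-free ELISA with plate-bound poly(Glu:Tyr 4:1) phosphorylated by GST-fused Met kinase domain plus ATP and Mn2+, phosphotyrosine detected by anti-phosphotyrosine antibody with HRP and ABTS read-out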
Type: biochemical
Conditions: plain numbers in column Met IC50 (μM) of Table 2; read-out: Met IC50
Give bare numbers, in µM.

Recorded results for 2 molecules are shown here.
// fetch IC50 given entry CC(Oc1cc(-c2ccc(NC(=O)N3CC[C@@H](N)C3)cc2)cnc1N)c1c(F)ccc(F)c1Cl (some centres unmarked)
0.069

Recall and state the measured IC50 for CCC(CC)COc1cnc(N)c(OC(C)c2c(F)ccc(F)c2Cl)c1 (centres unmarked) .
4.08

Could I get IC50 for every one of these entries?
1. CC(Oc1cc(-c2ccc(C(=O)N3CCN(C)CC3)nc2)cnc1N)c1c(F)ccc(F)c1Cl (centres unmarked)
2. Nc1ccc(-c2cnc(N)c(OCc3ccccc3Cl)c2)cn1
3. CC(Oc1cc(-c2ccccn2)cnc1N)c1c(Cl)ccc(F)c1Cl (centres unmarked)
4. CC(Oc1cc(C#CCNC(=O)CN2CCCC2)cnc1N)c1c(Cl)ccc(F)c1Cl (centres unmarked)
5. CC(Oc1cc(-c2cccc(C(=O)N3CCC(N4CCCC4)CC3)c2)cnc1N)c1c(Cl)cccc1Cl (centres unmarked)
6. CC(Oc1cc(-c2cc(C(=O)N3CCN(C)CC3)ccn2)cnc1N)c1c(F)ccc(F)c1Cl (centres unmarked)
7. CC(Oc1cc(-c2cc3ccccc3s2)cnc1N)c1c(Cl)ccc(F)c1Cl (centres unmarked)

[0.0716, 4.31, 0.0677, 0.0091, 0.1, 0.209, 1.95]

# per-item lookup of IC50; items listed below
1. CC(Oc1cc(C#CCNC(=O)NCCCN2CCOCC2)cnc1N)c1c(Cl)ccc(F)c1Cl (centres unmarked)
2. CC(Oc1cc(-c2ccc(C(=O)N3CCN(C)CC3)cn2)cnc1N)c1c(Cl)ccc(F)c1Cl (centres unmarked)
3. CC(Oc1cc(C#CCNC(=O)N2CCC[C@@H]2CN2CCCC2)cnc1N)c1c(Cl)ccc(F)c1Cl (some centres unmarked)

1: 0.064; 2: 0.0385; 3: 0.071

# map each molecule to its IC50
1. Nc1ncc(-c2cncnc2)cc1OCc1c(Cl)cccc1Cl
2. CC(Oc1cc(C#CCNC(=O)NC2CCN(C)CC2)cnc1N)c1c(Cl)ccc(F)c1Cl (centres unmarked)
3. CC(Oc1cc(OCC2CCCCC2)cnc1N)c1c(F)ccc(F)c1Cl (centres unmarked)
4. CC(Oc1cc(-c2cccc(C(=O)N3CCN(C)CC3)n2)cnc1N)c1c(Cl)ccc(F)c1Cl (centres unmarked)

[10.3, 0.051, 5.97, 0.0629]
